tested on: SK-MEL-5 melanoma; experiment: NCI tumour cell line growth inhibition, 48 h
Where a SMILES comes first, the peptide text is derived from it. The star is where a group is joined. Cbz = O=C(OCc1ccccc1)*

compound: CC(C)(C)OC(=O)N1C2CCCC23O[C@@H]1c1cc2c(cc1C3=O)OCO2 (stereo not given in full)
assay.system: SK-MEL-5 melanoma
limit.sign: =
TGI, µM: 26.1

compound: CCCCCCc1cc2cc(C(=O)Nc3ccc(F)cc3)c(=N)oc2cc1O
assay.system: SK-MEL-5 melanoma
limit.sign: =
TGI, µM: 3.28

compound: CCCCC1C=Cn2c(=O)oc3c(OC(C)C)c(C)c(O)c1c32 (stereo not given)
assay.system: SK-MEL-5 melanoma
limit.sign: =
TGI, µM: 6.59

compound: Cc1ccc(NC(=O)C(=O)C2C(=O)NC(=O)NC2=O)cc1C
assay.system: SK-MEL-5 melanoma
limit.sign: >
TGI, µM: 100

compound: O=P1(Cc2ccccc2)N(Cc2ccccc2)[C@@H]2CCCC[C@H]2N1Cc1ccccc1
assay.system: SK-MEL-5 melanoma
limit.sign: =
TGI, µM: 3.57

compound: CCCCC1Cc2cc(O)ccc2-c2nc3cc(O)ccc3n21 (stereo not given) (tested in a mixture with another compound)
assay.system: SK-MEL-5 melanoma
limit.sign: =
TGI, µM: 26.3

compound: c1ccc(NCCSc2nc3ccccc3s2)cc1
assay.system: SK-MEL-5 melanoma
limit.sign: =
TGI, µM: 42.3

compound: COC(=O)[C@]12CC[C@@H](C)[C@H](C)[C@@H]1C1=CC[C@@H]3[C@@]4(C)C(C=O)=C[C@@](C)(COC(=O)c5ccco5)[C@@H]4[C@H](O)C[C@@]3(C)[C@]1(C)CC2
assay.system: SK-MEL-5 melanoma
limit.sign: =
TGI, µM: 1.65

compound: NC1(CCNC(=O)c2ccccc2)CCN(C(=O)c2ccccc2)CC1
assay.system: SK-MEL-5 melanoma
limit.sign: >
TGI, µM: 100

compound: CCOC(=O)CCC(NC(=O)C(Cc1ccccc1)NC(=O)OCc1ccccc1)C(=O)OCC (stereo not drawn) (Cbz-Phe-Glu(OEt)-OEt; configuration not given here)
assay.system: SK-MEL-5 melanoma
limit.sign: =
TGI, µM: 28.8

compound: COc1ccc(/C(Cl)=C(\C#N)c2ccc(OC)c(OC)c2)cc1OC
assay.system: SK-MEL-5 melanoma
limit.sign: >
TGI, µM: 100

compound: C=CCC1(C)CCCCC1(O)CS(=O)c1ccccc1 (stereo not given)
assay.system: SK-MEL-5 melanoma
limit.sign: >
TGI, µM: 100

compound: O=Cc1ccc(-c2ccc(-c3ccc(CO)s3)o2)s1
assay.system: SK-MEL-5 melanoma
limit.sign: =
TGI, µM: 17.7

compound: O=C(N/N=C/c1ccc(O)cc1O)c1cccnc1
assay.system: SK-MEL-5 melanoma
limit.sign: =
TGI, µM: 27.6

compound: COc1cccc(CC(=O)N2CCN(CCCc3ccccc3)CC2)c1
assay.system: SK-MEL-5 melanoma
limit.sign: =
TGI, µM: 77.1

compound: COc1cc2c3c(n(CCCN(C)CCO)c(=O)c2cc1OC)-c1cc2c(cc1C3=O)OCO2
assay.system: SK-MEL-5 melanoma
limit.sign: =
TGI, µM: 33.5

compound: N[C@H](Cc1ccc2oc3cc(=O)c4ccccc4c-3nc2c1)C(=O)O
assay.system: SK-MEL-5 melanoma
limit.sign: =
TGI, µM: 41.1

compound: COc1cc(-c2nnc3n2NC=C(C(=O)O)S3)cc(OC)c1OC
assay.system: SK-MEL-5 melanoma
limit.sign: >
TGI, µM: 100

compound: O=C1OCC2OC(=O)c3cc(O)c(O)c(O)c3-c3c(O)c(O)c(O)c4c3C(=O)OC(C2OC(=O)c2cc(O)c(O)c(O)c2-c2c1cc(O)c(O)c2O)C1OC(=O)C2C4=C(O)C(=O)C23Oc2cc(O)c4c(c2[C@H]13)O[C@H](c1ccc(O)c(O)c1)[C@@H](O)C4 (stereo not given in full)
assay.system: SK-MEL-5 melanoma
limit.sign: =
TGI, µM: 33.8

compound: COc1ccc2nc(-c3ccccc3)c(=O)[nH]c2c1
assay.system: SK-MEL-5 melanoma
limit.sign: >
TGI, µM: 100

compound: Cc1ccc2[c](c1)[Sn]([c]1ccccc1)([c]1ccccc1)[c]1cc(C)ccc1N2C
assay.system: SK-MEL-5 melanoma
limit.sign: >
TGI, µM: 100

compound: CC(=O)[CH-]C(=O)c1ccccc1.CC(=O)[CH-]C(=O)c1ccccc1.O=S(=O)([O-])c1cc([O-])c2c([O-])cc(S(=O)(=O)[O-])cc2c1.[Na+].[Ti+4]
assay.system: SK-MEL-5 melanoma
limit.sign: >
TGI, µM: 100

compound: C/C(=N\NC(=S)N1CCCC1)c1nc2ncccc2[nH]1
assay.system: SK-MEL-5 melanoma
limit.sign: =
TGI, µM: 2.93

compound: C=CCn1c(SCC(=O)Nc2ccc(C(=O)/C=C/c3cc(OC)c(OC)c(OC)c3)cc2)nnc1-c1ccc(OC)cc1
assay.system: SK-MEL-5 melanoma
limit.sign: =
TGI, µM: 2.27

compound: c1ccc2c(c1)OCCOCCOc1ccccc1OCCO2
assay.system: SK-MEL-5 melanoma
limit.sign: >
TGI, µM: 100

compound: COC(=O)N[C@H](C(=O)NC(OCc1ccccc1)C1COC(C)(C)O1)C(C)O[Si](C)(C)C(C)(C)C (stereo not given in full)
assay.system: SK-MEL-5 melanoma
limit.sign: =
TGI, µM: 65.8

compound: O=C(Cn1c2ccc(Br)cc2c2nc3ccccc3nc21)NNC(=S)NC1CCCCC1
assay.system: SK-MEL-5 melanoma
limit.sign: =
TGI, µM: 28

compound: O=c1cc(CF)[nH]c(=S)[nH]1
assay.system: SK-MEL-5 melanoma
limit.sign: >
TGI, µM: 100

compound: CCCO[C@@H]1[C@@H](OC(C)=O)[C@@H](OC(C)=O)C(C)(C)/C=C/[C@H](C)C(=O)[C@@]2(OC(C)=O)C[C@@](C)(OC(C)=O)[C@H](OC(C)=O)[C@@H]2[C@H]2OC(=O)CC[C@@]12OC(=O)c1ccccc1
assay.system: SK-MEL-5 melanoma
limit.sign: >
TGI, µM: 25

compound: S=C1NCCN1C(=S)Nc1ccccc1
assay.system: SK-MEL-5 melanoma
limit.sign: >
TGI, µM: 100

Attribution: PubChem BioAssay (NCI)
